# EXPERIMENTAL PROTOCOL: Human HepG2 cell viability assay in 384 well format
# Format: toxicity, cell-based
# Set-up: dose 125 nL, time 70.5 hour; concentration not given beside the values
# APPLIED CONDITIONS: HepG2 cells, read-out: Inhibition

COMPOUND | UNIT SYMBOL | cytotoxicity at 70.5 h
Cc1cccc(CN2CCc3nnc(CN(C)C)n3CC2)n1 | % | -10.7
NC(=O)CC1CC2(CCNCC2)c2cc(F)ccc21 (centres undefined) | % | -7.94
COc1ccc(Br)cc1CC(=O)N1CCCC1 | % | -5.85
Cc1cccc(-c2ccc(C(=O)NCC(C)(C)C(N)=O)c(=O)[nH]2)c1 | % | -18.8

---

# EXPERIMENTAL PROTOCOL: Human HepG2 cell viability assay in 384 well format
# Assay type: toxicity, cell-based
# Design: dose 125 nL, time 70.5 hour; concentration not given beside the values
# APPLIED CONDITIONS: HepG2 cells, read-out: Inhibition
Reported values of cytotoxicity at 70.5 h for individual entries

COMPOUND | UNIT SYMBOL | cytotoxicity at 70.5 h
CN(C)c1cc(C(=O)N2CCCCC2)ccn1 | % | 0.476
CN(C)C(=O)N1CCn2nc(CNC(=O)CCc3ccccn3)cc2C1 | % | 13.6
CCC[C@@H]1CN(Cc2ccccc2OC(F)(F)F)C[C@H]1NC(C)=O | % | -20
Cn1ccnc1CN1CCN(c2ccc(C#N)cn2)CC1 | % | -13.3
Cc1cc(NCCNc2cccnc2)nc(N)n1 | % | 12.3
CCNC(=O)Cn1ncc(N(C)CCc2ccccc2)cc1=O | % | 8.48
N#Cc1ccc(OC2CCN(C(=O)c3ccc(Br)o3)CC2)nc1 | % | 20.2
O=C(c1cc2cccc(F)c2[nH]1)N1C[C@@H](O)[C@H](N2CCCC2)C1 | % | -4.92
COCCN1CCN(CCS(=O)(=O)c2cccc(OC)c2)CC1 | % | -2.71
Cc1nc(N2CC[C@@H](NC(=O)c3cnccn3)[C@H](O)C2)c2ccsc2n1 | % | -3.33
CC(C)NC(=O)C1(Cc2ccccc2-c2cccs2)CCNC1 (centres undefined) | % | -3.31
Cc1nc(C2CCN(C(=O)c3cccnc3)CC2)c2sccn12 | % | 0.00673
CN(C)C(=O)c1ccc(N2CCC3(CCC(=O)N(CCO)C3)CC2)nc1 | % | -2.34
c1cnc(N2C[C@@H]3CC[C@H](C2)N(Cc2ccsc2)C3)nc1 | % | -9.26
COc1cc2cc3c(nc2cc1OC)OCCN(Cc1cccs1)C3 | % | 28
OC(COc1ccc(F)cc1)CN1CCC(c2ccn[nH]2)CC1 (centres undefined) | % | -9.19
CCCc1nc(N(C)Cc2cnc(NC)nc2)c2cnn(C)c2n1 | % | 8.94
CCc1n[nH]c(C2CN(C(=O)c3ccc(Cl)cn3)CCO2)n1 (centres undefined) | % | -8.84
Cc1csc2cc(C(=O)NC3CC3)cnc12 | % | -1.57

---

Listing of entries alongside the reported cytotoxicity at 70.5 h.
# EXPERIMENTAL PROTOCOL: Human HepG2 cell viability assay in 384 well format
# Type: toxicity, cell-based
# Set-up: dose 125 nL, time 70.5 hour; concentration not given beside the values
# APPLIED CONDITIONS: HepG2 cells, read-out: Inhibition

COMPOUND | cytotoxicity at 70.5 h, %
COc1ccnc(CNc2nc(C)nc3ccsc23)c1 | 3.18
COCC(=O)N1CCOC(c2cccc(-c3cncnc3)n2)C1 (stereo unspecified) | -5.56
O=C(NCCn1ccnc1)c1ccn(-c2cccc(F)c2)n1 | 12.4
Cc1nc(C2CCCN(C(=O)CO)C2)cc(N2CCOCC2)n1 (stereo unspecified) | -4.97
Cc1cc(C)n(C2CN(CC(O)c3ccc(F)cc3)C2)n1 (stereo unspecified) | -10.7
Cn1cc(CN2CCCN(C(=O)c3cc(Cl)cn3C)CC2)cn1 | 38.5
COCCCNC(=O)c1cc(C(C)C)nc(N2CCCC2)n1 | -10.1
Cn1ccnc1CN1CCCC1c1noc(C2CC2)n1 (stereo unspecified) | 1.39
CC(C)C1SCC(=O)Nc2c1c(O)nn2C1CCCCC1 (stereo unspecified) | -23.1
Cc1ccc(-c2ncc(C(=O)N3CCCN4CCC[C@H]4C3)c(O)n2)cc1 | 5.02
CC1c2ncc(COc3cccnc3)n2CCN1Cc1cnn(C)c1 (stereo unspecified) | -9.85
COc1ccc(C2(NCc3c(C)nc4c(C)cccn34)CCCC2)cc1 | -5.54
Cc1cc(C2CCCN2Cc2ccn(C)c(=O)c2)on1 (stereo unspecified) | -3.44
CCCC(=O)NC(C(=O)OC)c1cc(F)ccc1F (stereo unspecified) | -3.96
CC(=O)Nc1nc(C(=O)N2CCCC2Cn2cc(C)cn2)cs1 (stereo unspecified) | -10.5
O=C(C1CCOCC1)N1CC[C@@H](N2CCOCC2)[C@@H]1Cc1ccccc1 | 5.57
CN(C)C(=O)CNC(=O)c1cc2ccccc2nc1N1CCCC1 | -7.99
NC[C@H]1CC[C@H](C(NC(=O)CC2CCCCC2)c2ccccn2)CC1 (stereo partly specified) | -6.94
CCN1CCCC1CNC(=O)c1cc(COc2ccccc2F)[nH]n1 (stereo unspecified) | -4.57
Cn1cc(C(=O)N2CCCC2CCc2ccccc2)cn1 (stereo unspecified) | -9.35
Cc1ccc(CNC(=O)CCN2CCOC(C(F)(F)F)C2)cc1 (stereo unspecified) | -2.06
CNC(=O)[C@@]12CCO[C@@H]1CCN(Cc1cccc(C)c1)C2 | -12.5
CCCc1cc(C(=O)N(C)Cc2cnn(-c3cccc(OC)c3)c2)[nH]n1 | -6.08
CCN(CC(F)(F)F)C(=O)C1CCCN(Cc2ccno2)C1 (stereo unspecified) | -7.36
CN(C)c1ccc(C(=O)N2CCCc3cc(OC(F)(F)F)ccc32)cn1 | -5.84
COc1ncccc1C1CC(=O)Nc2cc(NS(C)(=O)=O)ccc21 (stereo unspecified) | -9.6
O=C(C1CNCCN1C(=O)CCOc1ccccc1)N1CCCC1 (stereo unspecified) | -1.81
O=C(c1ccc(O)c(Cl)c1)N1C[C@@H](CN2CCCCCC2)[C@@H](CO)C1 | 3.21
CC(C)c1cc(C(=O)NCC2CCCN(c3ncccn3)C2)n(C)n1 (stereo unspecified) | -5.82
Cc1cccc(C)c1OC1CN(Cc2cnc(N3CCCC3)nc2)C1 | 27.2
Cc1cc(-c2cnc(NC3CCCC3)nc2-c2ccco2)on1 | -6.66
Cc1ccccc1OCCCNC(=O)C1(C)CC(=O)N2C=CC=CC2=N1 (stereo unspecified) | 0.923
COc1cc(N2CCC3(CC(=O)N(Cc4csc(C)n4)C3)C2)ncn1 (stereo unspecified) | -6.14
Cn1cccc1C(=O)N1C[C@H]2CN(CCN3CCCC3)C(=O)[C@H]2C1 | -8.62
NCC(CO)Cc1ccc(C(F)(F)F)cc1 (stereo unspecified) | 4.66
O=C(C1CCOCC1)N1CCO[C@H]2[C@H](OCC3CC3)CC[C@@H]21 | 2.42
Cn1c(NCC(O)c2ccc(F)cc2F)c(C#N)c(=O)n(C)c1=O (stereo unspecified) | -5.92
O=S(=O)(c1ccccc1)N1CCOCC(Cc2cccnc2)C1 (stereo unspecified) | -3.24
Cc1nc(C)n(C2CCCN(C(=O)CCCNc3ncccn3)C2)n1 (stereo unspecified) | -4.88
O=S(=O)(C1CC1)N1CCCC2(COCCN(c3nncs3)C2)C1 (stereo unspecified) | 12.7
CCCN1CCCN(S(=O)(=O)c2cnc3onc(C)c3c2)CC1 | 2.21
